The reader will find reported selectivity ratio at 72 h values listed item by item below.
Assay: In vitro antiproliferative activity, SRB assay, LoVo/DX
Conditions: human
Answer with a number only.

Example results:
[[record]]
molecule = "CC[C@@H](C(=O)[C@@H](C)[C@@H](O)[C@H](C)CCc1ccc(C)c(O)c1C(=O)O)[C@H]1O[C@](CC)([C@H]2CC[C@](O)(CC)[C@H](C)O2)C[C@@H]1C [LAS, lasalocid acid]"
experimental_value = 1.5

[[record]]
molecule = "C=C(C)[C@@H]1CC[C@]2(C(=O)O)CC[C@]3(C)[C@H](CC[C@@H]4[C@@]5(C)CC[C@H](O)C(C)(C)[C@@H]5CC[C@]43C)[C@@H]12 [BET, betulinic acid]"
experimental_value = 0.81


Kindly review the next molecule as well.
[ask] Query: selectivity ratio at 72 h; subject: COc1cccc2c1C(=O)c1c(O)c3c(c(O)c1C2=O)C[C@@](O)(C(=O)CO)C[C@@H]3O[C@H]1C[C@H](N)[C@H](O)[C@H](C)O1 [DX, doxorubicin]
[reply] 0.02

###

Test: in vitro
Settings: mouse (BALB/3T3), human (LoVo/DX)
assay_metric: selectivity ratio at 72 h

[ask] // selectivity ratio at 72 h lookup, key: C=C(C)[C@@H]1CC[C@]2(C(=O)NCc3cn([C@H]4C=C[C@]5(O[C@H]([C@@H](CC)C(=O)[C@@H](C)[C@@H](O)[C@H](C)[C@@H]6O[C@@H]([C@@H](CC)C(=O)O)CC[C@@H]6C)[C@@H](C)C[C@H]5C)O[C@@]45CC[C@@](C)([C@H]4CC[C@](O)(CC)[C@H](C)O4)O5)nn3)CC[C@]3(C)[C@H](CC[C@@H]4[C@@]5(C)CC[C@H](O)C(C)(C)[C@@H]5CC[C@]43C)[C@@H]12
[reply] 0.35

###

Test: in vitro
Conditions: mouse (BALB/3T3), human (LoVo/DX)
// values below are reported selectivity ratio at 72 h
// keep it numeric: no unit symbol after the value

Take a look at these entries with their results.
[[record]]
chem_smiles = "CC[C@@H](C(=O)[C@@H](C)[C@@H](O)[C@H](C)[C@@H]1O[C@@H]([C@@H](CC)C(=O)O)CC[C@@H]1C)[C@H]1O[C@]2(C=C[C@@H](O)[C@]3(CC[C@@](C)([C@H]4CC[C@](O)(CC)[C@H](C)O4)O3)O2)[C@H](C)C[C@@H]1C"
assay_metric = "selectivity ratio at 72 h"
experimental_value = 2.54

[[record]]
chem_smiles = "CC[C@@]1([C@@H]2O[C@@H]([C@H]3O[C@@](O)(CO)[C@H](C)C[C@@H]3C)C[C@@H]2C)CC[C@H]([C@]2(C)CC[C@]3(C[C@H](O)[C@@H](C)[C@@H]([C@@H](C)[C@@H](OC)[C@H](C)C(=O)O)O3)O2)O1"
assay_metric = "selectivity ratio at 72 h"
experimental_value = 4.23


[ask] // lookup selectivity ratio at 72 h for C=C(C)[C@@H]1CC[C@]2(C(=O)O)CC[C@]3(C)[C@H](CC[C@@H]4[C@@]5(C)CC[C@H](OC(=O)OCc6cn([C@H]7C=C[C@]8(O[C@H]([C@@H](CC)C(=O)[C@@H](C)[C@@H](O)[C@H](C)[C@@H]9O[C@@H]([C@@H](CC)C(=O)O)CC[C@@H]9C)[C@@H](C)C[C@H]8C)O[C@@]78CC[C@@](C)([C@H]7CC[C@](O)(CC)[C@H](C)O7)O8)nn6)C(C)(C)[C@@H]5CC[C@]43C)[C@@H]12
[reply] 0.39

Ref: paper PMC7408349
